# experiment: method code G-GLC, from Larsen, B. R., Skejo-Andreasen, H., & Pérez, A. P. (1992). Octanol-water partition coefficients of 39 polychlorinated biphenyls in an Askarel mixture. Fresenius Envir. Bull. I (Supplementum), S13-18.
assay-metric: logP
Number only, please.

Clc1ccc(-c2ccc(Cl)c(Cl)c2Cl)c(Cl)c1Cl | 6.62
Clc1cc(Cl)c(-c2cccc(Cl)c2Cl)cc1Cl | 6.28
Clc1ccc(Cl)c(-c2cc(Cl)ccc2Cl)c1 | 5.81

Documented logP of Clc1ccc(-c2ccc(Cl)c(Cl)c2Cl)cc1 : 5.95

Entry under test: Clc1ccc(Cl)c(-c2c(Cl)ccc(Cl)c2Cl)c1 . Its logP was 6.08

Value of logP reported for the molecule Clc1ccc(Cl)c(-c2ccc(Cl)c(Cl)c2)c1 is 5.99

---

# experiment: method code G-GLC, from Larsen, B. R., Skejo-Andreasen, H., & Pérez, A. P. (1992). Octanol-water partition coefficients of 39 polychlorinated biphenyls in an Askarel mixture. Fresenius Envir. Bull. I (Supplementum), S13-18.
Entries and their logP
Just the number, please, no unit attached.

Clc1ccc(-c2c(Cl)ccc(Cl)c2Cl)cc1Cl | 6.22
Clc1ccc(-c2cccc(Cl)c2Cl)cc1 | 5.63
Clc1ccc(Cl)c(-c2c(Cl)c(Cl)cc(Cl)c2Cl)c1 | 6.45

Proceed to the following item.
Entry Clc1cc(Cl)c(-c2c(Cl)ccc(Cl)c2Cl)c(Cl)c1Cl , logP reported as 6.76
